# Species on record: Rattus norvegicus
# Measurement protocol: Inhibition of Monoamine oxidase in rat brain mitochondria at 0.01 mM by kynuramine fluorimetric assay
Assay metric: inhibition (%)

Reference set (3 entries):
[[record]]
molecule_smiles = "CCCCC1(CCCC)OC(c2ccc(Cl)cc2Cl)=NN1C(=O)NC(=O)c1c(F)cccc1F"
measurement = 5.43

[[record]]
molecule_smiles = "CCCCC1(CCCC)OC(c2ccc(Cl)cc2)=NN1C(=O)NC(=O)c1c(F)cccc1F"
measurement = 0

[[record]]
molecule_smiles = "CCCCC1(CCCC)OC(c2ccc(Cl)cc2Cl)=NN1C(=O)NC(=O)c1ccccc1Cl"
measurement = 5.86


I = CCCCC1(CCCC)OC(c2cc(C)cc(C)c2)=NN1C(=O)NC(=O)c1ccccc1Cl
II = CCCCC1(CCCC)OC(c2ccc3c(c2)OCO3)=NN1C(=O)NC(=O)c1ccccc1Cl
Query string: Which value of inhibition is greater, the one for I or the one for II ? Label of pick, please.
Result string: II

* * *

# Species: Rattus norvegicus
# Measurement protocol: Inhibition of Monoamine oxidase in rat brain mitochondria at 0.01 mM by kynuramine fluorimetric assay
Assay metric: inhibition (%)

[[record]]
molecule_smiles = "CCCCC1(CCCC)OC(c2cc(OC)c(OC)c(OC)c2)=NN1C(=O)NC(=O)c1c(F)cccc1F"
measurement = 0


a = CCCCC1(CCCC)OC(c2ccco2)=NN1C(=O)NC(=O)c1c(F)cccc1F
b = CCCCC1(CCCC)OC(c2ccc3c(c2)OCO3)=NN1C(=O)NC(=O)c1c(F)cccc1F
c = CCCCC1(CCCC)OC(c2ccc(Cl)cc2Cl)=NN1C(=O)NC(=O)c1cc(F)c(OC)c(F)c1F
d = CCCCC1(CCCC)OC(c2cc(C)cc(C)c2)=NN1C(=O)NC(=O)c1c(F)cccc1F
Query string: Parameters: sort_field (inhibition), sort_dir (desc). Put the labels in the requested order and list them out.
Result string: b, d, c, a

* * *

# Species on record: Rattus norvegicus
# Measurement protocol: Inhibition of Monoamine oxidase in rat brain mitochondria at 1 mM by kynuramine fluorimetric assay
Assay metric: inhibition (%)

[[record]]
molecule_smiles = "CCCCC1(CCCC)OC(c2ccc3c(c2)OCO3)=NN1C(=O)NC(=O)c1c(F)cccc1F"
measurement = 78.4

[[record]]
molecule_smiles = "CCCCC1(CCCC)OC(c2ccc(Cl)cc2Cl)=NN1C(=O)NC(=O)c1ccccc1Cl"
measurement = 78

[[record]]
molecule_smiles = "CCCCC1(CCCC)OC(c2ccc(Cl)cc2Cl)=NN1C(=O)NC(=O)c1cc(F)c(OC)c(F)c1F"
measurement = 81.8

[[record]]
molecule_smiles = "CCCCC1(CCCC)OC(c2ccc(Cl)cc2)=NN1C(=O)NC(=O)c1c(F)cccc1F"
measurement = 58.8

[[record]]
molecule_smiles = "CCCCC1(CCCC)OC(c2cc(C)cc(C)c2)=NN1C(=O)NC(=O)c1c(F)cccc1F"
measurement = 69.2

[[record]]
molecule_smiles = "CCCCC1(CCCC)OC(c2ccc(Cl)cc2Cl)=NN1C(=O)NC(=O)c1c(F)cccc1F"
measurement = 72.5

[[record]]
molecule_smiles = "CCCCC1(CCCC)OC(c2cc(OC)c(OC)c(OC)c2)=NN1C(=O)NC(=O)c1c(F)cccc1F"
measurement = 69.2

[[record]]
molecule_smiles = "CCCCC1(CCCC)OC(c2cc(C)cc(C)c2)=NN1C(=O)NC(=O)c1ccccc1Cl"
measurement = 72.8

[[record]]
molecule_smiles = "CCCCC1(CCCC)OC(c2ccco2)=NN1C(=O)NC(=O)c1c(F)cccc1F"
measurement = 75.1

[[record]]
molecule_smiles = "CCCCC1(CCCC)OC(c2ccc3c(c2)OCO3)=NN1C(=O)NC(=O)c1ccccc1Cl"
measurement = 75.4


* * *

# Species on record: Rattus norvegicus
# Measurement protocol: Inhibition of Monoamine oxidase in rat brain mitochondria at 0.1 mM by kynuramine fluorimetric assay
Assay metric: inhibition (%)

[[record]]
molecule_smiles = "CCCCC1(CCCC)OC(c2cc(C)cc(C)c2)=NN1C(=O)NC(=O)c1c(F)cccc1F"
readout_unit = "%"
measurement = 26.2

[[record]]
molecule_smiles = "CCCCC1(CCCC)OC(c2ccc(Cl)cc2Cl)=NN1C(=O)NC(=O)c1c(F)cccc1F"
readout_unit = "%"
measurement = 25.1

[[record]]
molecule_smiles = "CCCCC1(CCCC)OC(c2ccc(Cl)cc2Cl)=NN1C(=O)NC(=O)c1cc(F)c(OC)c(F)c1F"
readout_unit = "%"
measurement = 25.9


A = CCCCC1(CCCC)OC(c2ccc(Cl)cc2)=NN1C(=O)NC(=O)c1c(F)cccc1F
B = CCCCC1(CCCC)OC(c2ccc(Cl)cc2Cl)=NN1C(=O)NC(=O)c1ccccc1Cl
Query string: Please indicate which has the smaller reported inhibition: A , or B . Let me know the label of the one you choose.
Result string: A

* * *

# Species on record: Rattus norvegicus
# Measurement protocol: Inhibition of Monoamine oxidase in rat brain mitochondria at 0.1 mM by kynuramine fluorimetric assay
Assay metric: inhibition (%)

[[record]]
molecule_smiles = "CCCCC1(CCCC)OC(c2ccco2)=NN1C(=O)NC(=O)c1c(F)cccc1F"
readout_unit = "%"
measurement = 23.7

[[record]]
molecule_smiles = "CCCCC1(CCCC)OC(c2ccc3c(c2)OCO3)=NN1C(=O)NC(=O)c1ccccc1Cl"
readout_unit = "%"
measurement = 27.5

[[record]]
molecule_smiles = "CCCCC1(CCCC)OC(c2cc(C)cc(C)c2)=NN1C(=O)NC(=O)c1ccccc1Cl"
readout_unit = "%"
measurement = 24.6


a = CCCCC1(CCCC)OC(c2cc(OC)c(OC)c(OC)c2)=NN1C(=O)NC(=O)c1c(F)cccc1F
b = CCCCC1(CCCC)OC(c2ccc3c(c2)OCO3)=NN1C(=O)NC(=O)c1c(F)cccc1F
Query string: Of the two listed items, a and b , which carries the larger inhibition figure? To answer, give the label that identifies your chosen option.
Result string: b
